test system: MT-4 T-lymphoid cell line; test: Test B: Cytostatic cell culture assay (CC50), CellTiter Glo, lymphoid tumor cell lines; details: Homo sapiens, MT4, 120 h, read-out: CC50 T-lymphoid MT-4

{"columns": ["compound", "CC50"],
 "data": [
  ["Nc1ncnc2c1c(-c1cn[nH]c1)cn2[C@@H]1O[C@H](CO)[C@@H](O)[C@H]1O [Compound 2m]", "110 nM"],
  ["Nc1ncnc2c1c(-c1ccco1)cn2[C@@H]1O[C@H](CO)[C@@H](O)[C@H]1O [Compound 2f]", "86 nM"],
  ["Nc1ncnc2c1c(-c1ccsc1)cn2[C@@H]1O[C@H](CO)[C@@H](O)[C@H]1O [Compound 2i]", "124 nM"],
  ["Nc1ncnc2c1c(-c1c[nH]cn1)cn2[C@@H]1O[C@H](CO)[C@@H](O)[C@H]1O [Compound 2r]", "28 nM"],
  ["Nc1ncnc2c1c(-c1c[nH]nn1)cn2[C@@H]1O[C@H](CO)[C@@H](O)[C@H]1O [Compound 2p]", "18 nM"],
  ["Nc1ncnc2c1c(-c1cc[nH]n1)cn2[C@@H]1O[C@H](CO)[C@@H](O)[C@H]1O [Compound 2n]", "18 nM"],
  ["Nc1ccn([C@@H]2O[C@H](CO)[C@@H](O)C2(F)F)c(=O)n1 [Gemcitabine, reference compound]", "2 nM"]
]}

====

Entries and their CC50 values follow.
test system: NCI H23; assay: Test A: Cytostatic cell culture assay (CC50), SRB, solid tumor cell lines; format: cell-based; details: Homo sapiens, NCI-H23, 120 h, read-out: CC50 Lung NCI H23

{"columns": ["compound", "CC50 [nM]"],
 "data": [
  ["COc1ccc(-c2cn([C@@H]3O[C@H](CO)[C@@H](O)[C@H]3O)c3ncnc(N)c23)cc1 [Compound 2b]", 856],
  ["Nc1ncnc2c1c(-c1cc[nH]c1)cn2[C@@H]1O[C@H](CO)[C@@H](O)[C@H]1O [Compound 2l]", 33],
  ["C#Cc1cn([C@@H]2O[C@H](CO)[C@@H](O)[C@H]2O)c2ncnc(N)c12 [Compound 2o]", 1],
  ["Nc1ccn([C@@H]2O[C@H](CO)[C@@H](O)C2(F)F)c(=O)n1 [Gemcitabine, reference compound]", 2],
  ["Nc1ncnc2c1c(-c1nccs1)cn2[C@@H]1O[C@H](CO)[C@@H](O)[C@H]1O [Compound 2q]", 5],
  ["Nc1ncnc2c1c(-c1ccoc1)cn2[C@@H]1O[C@H](CO)[C@@H](O)[C@H]1O [Compound 2h]", 198],
  ["Nc1ncnc2c1c(-c1cn[nH]c1)cn2[C@@H]1O[C@H](CO)[C@@H](O)[C@H]1O [Compound 2m]", 144]
]}

====

test system: PC3; assay: Test A: Cytostatic cell culture assay (CC50), SRB, solid tumor cell lines; format: cell-based; conditions: Homo sapiens, PC-3, 120 h, read-out: CC50 Prostate PC3
Reported CC50 values for the following compounds.

{"columns": ["givenSmiles", "CC50 (nM)"],
 "data": [
  ["Nc1ncnc2c1c(-c1ccsc1)cn2[C@@H]1O[C@H](CO)[C@@H](O)[C@H]1O", 1320],
  ["Nc1ncnc2c1c(-c1cccs1)cn2[C@@H]1O[C@H](CO)[C@@H](O)[C@H]1O", 1620],
  ["Nc1ncnc2c1c(-c1ccco1)cn2[C@@H]1O[C@H](CO)[C@@H](O)[C@H]1O", 4],
  ["Nc1ncnc2c1c(-c1ccoc1)cn2[C@@H]1O[C@H](CO)[C@@H](O)[C@H]1O", 418]
]}

====

tested on: MT-4 T-lymphoid cell line; assay: Test B: Cytostatic cell culture assay (CC50), CellTiter Glo, lymphoid tumor cell lines; details: Homo sapiens, MT4, 120 h, read-out: CC50 T-lymphoid MT-4

{"columns": ["givenSmiles", "CC50 (nM)"],
 "data": [
  ["Nc1ncnc2c1c(-c1nccs1)cn2[C@@H]1O[C@H](CO)[C@@H](O)[C@H]1O", 42],
  ["Nc1ncnc2c1c(-c1cc[nH]c1)cn2[C@@H]1O[C@H](CO)[C@@H](O)[C@H]1O", 24],
  ["CSc1ccc(-c2cn([C@@H]3O[C@H](CO)[C@@H](O)[C@H]3O)c3ncnc(N)c23)cc1", 4400],
  ["Nc1ncnc2c1c(-c1ncc[nH]1)cn2[C@@H]1O[C@H](CO)[C@@H](O)[C@H]1O", 49]
]}

====

test system: NCI H23; experiment: Test A: Cytostatic cell culture assay (CC50), SRB, solid tumor cell lines; type: cell-based; details: Homo sapiens, NCI-H23, 120 h, read-out: CC50 Lung NCI H23
In this section, each of the molecules is paired with its reported log10 of CC50.
resultType: log10 of CC50 (log10 of the value in nM)

{"columns": ["molecule", "log10 of CC50"],
 "data": [
  ["Nc1ncnc2c1c(-c1cc[nH]n1)cn2[C@@H]1O[C@H](CO)[C@@H](O)[C@H]1O [Compound 2n]", 1.54],
  ["Nc1ncnc2c1c(-c1cc3ccccc3o1)cn2[C@@H]1O[C@H](CO)[C@@H](O)[C@H]1O [Compound 2j]", 3.73],
  ["Nc1ncnc2c1c(-c1ncc[nH]1)cn2[C@@H]1O[C@H](CO)[C@@H](O)[C@H]1O [Compound 2s]", 0.78],
  ["Nc1ncnc2c1c(-c1ccc3ccccc3c1)cn2[C@@H]1O[C@H](CO)C(O)C1O (stereo partly drawn) [Compound 2e]", 3.73],
  ["Nc1ncnc2c1ccn2[C@@H]1O[C@H](CO)[C@@H](O)[C@H]1O [Tubercidin, reference compound]", 1.04],
  ["Nc1ncnc2c1c(-c1ccsc1)cn2[C@@H]1O[C@H](CO)[C@@H](O)[C@H]1O [Compound 2i]", 1.86],
  ["Nc1ncnc2c1c(-c1c[nH]nn1)cn2[C@@H]1O[C@H](CO)[C@@H](O)[C@H]1O [Compound 2p]", 0.60],
  ["Nc1ncnc2c1c(-c1c[nH]cn1)cn2[C@@H]1O[C@H](CO)[C@@H](O)[C@H]1O [Compound 2r]", 0.30],
  ["COc1cccc2c1C(=O)c1c(O)c3c(c(O)c1C2=O)C[C@@](O)(C(=O)CO)C[C@@H]3O[C@H]1C[C@H](N)[C@H](O)[C@H](C)O1 [Doxorubicine, reference compound]", 0.70],
  ["CSc1ccc(-c2cn([C@@H]3O[C@H](CO)[C@@H](O)[C@H]3O)c3ncnc(N)c23)cc1 [Compound 2c]", 2.59],
  ["Nc1nc(Cl)nc2c1ncn2[C@@H]1O[C@H](CO)[C@@H](O)[C@@H]1F [Clofarabine, reference compound]", 1.60],
  ["Nc1ncnc2c1c(-c1ccc[nH]1)cn2[C@@H]1O[C@H](CO)[C@@H](O)[C@H]1O [Compound 2k]", 2.52],
  ["Nc1ncnc2c1c(-c1cccs1)cn2[C@@H]1O[C@H](CO)[C@@H](O)[C@H]1O [Compound 2g]", 0.57],
  ["Nc1ncnc2c1c(-c1ccco1)cn2[C@@H]1O[C@H](CO)[C@@H](O)[C@H]1O [Compound 2f]", 2.47]
]}

====

tested on: HCT15; test: Test A: Cytostatic cell culture assay (CC50), SRB, solid tumor cell lines; type: cell-based; conditions: Homo sapiens, HCT-15, 120 h, read-out: CC50 Colon HCT15
resultType: CC50 (nM)

{"columns": ["compound", "val"],
 "data": [
  ["Nc1nc(Cl)nc2c1ncn2[C@@H]1O[C@H](CO)[C@@H](O)[C@@H]1F [Clofarabine, reference compound]", 180],
  ["Nc1ncnc2c1c(-c1cccs1)cn2[C@@H]1O[C@H](CO)[C@@H](O)[C@H]1O [Compound 2g]", 11],
  ["COc1ccc(-c2cn([C@@H]3O[C@H](CO)[C@@H](O)[C@H]3O)c3ncnc(N)c23)cc1 [Compound 2b]", 544],
  ["Nc1ncnc2c1c(-c1ccco1)cn2[C@@H]1O[C@H](CO)[C@@H](O)[C@H]1O [Compound 2f]", 3],
  ["Nc1ncnc2c1ccn2[C@@H]1O[C@H](CO)[C@@H](O)[C@H]1O [Tubercidin, reference compound]", 11],
  ["Nc1ccn([C@@H]2O[C@H](CO)[C@@H](O)C2(F)F)c(=O)n1 [Gemcitabine, reference compound]", 3]
]}

====

test system: BT549; assay: Test A: Cytostatic cell culture assay (CC50), SRB, solid tumor cell lines; type: cell-based; settings: Homo sapiens, BT-549, 120 h; BT549 breast tumor cells, 5 days, SRB; read-out: CC50 Breast BT549
Known CC50 of a selection of compounds

{"columns": ["compound", "assayTarget", "CC50 / nM"],
 "data": [
  ["Nc1ccn([C@@H]2O[C@H](CO)[C@@H](O)C2(F)F)c(=O)n1 [Gemcitabine, reference compound]", "BT549", 1],
  ["Nc1ncnc2c1c(-c1ccc[nH]1)cn2[C@@H]1O[C@H](CO)[C@@H](O)[C@H]1O [Compound 2k]", "BT549", 129],
  ["Nc1ncnc2c1c(-c1ccsc1)cn2[C@@H]1O[C@H](CO)[C@@H](O)[C@H]1O [Compound 2i]", "BT549", 28],
  ["Nc1ncnc2c1c(-c1cc[nH]c1)cn2[C@@H]1O[C@H](CO)[C@@H](O)[C@H]1O [Compound 2l]", "BT549", 8],
  ["Nc1ncnc2c1c(-c1ccoc1)cn2[C@@H]1O[C@H](CO)[C@@H](O)[C@H]1O [Compound 2h]", "BT549", 28],
  ["COc1cccc2c1C(=O)c1c(O)c3c(c(O)c1C2=O)C[C@@](O)(C(=O)CO)C[C@@H]3O[C@H]1C[C@H](N)[C@H](O)[C@H](C)O1 [Doxorubicine, reference compound]", "BT549", 10],
  ["Nc1ncnc2c1c(-c1cn[nH]c1)cn2[C@@H]1O[C@H](CO)[C@@H](O)[C@H]1O [Compound 2m]", "BT549", 50]
]}
